Numbers sourced from paper PMC7251097.

experimentalTarget: His6-AspH315–758 (human aspartate/asparagine-β-hydroxylase, AspH) (Homo sapiens)
Construct: N-Terminally His6-tagged human AspH315–758 (His6-AspH315–758) was produced in E. coli BL21 (DE3) cells; made in house; host or cells: E. coli BL21 (DE3), pET-28a(+) vector
methodDescription: SPE-MS AspH inhibition assay (LOPAC screen at fixed 20 μM and IC50 dose-response), hydroxylation of cyclic peptide hFX-CP101–119
Assay type: biochemical
statedConditions: LOPAC Plate 4, compound at 20 uM, substrate conversion
Structures can show the parent of a compound that is named as a salt.
measuredAttribute: % conversion (%)

>>> observedmeasurement("COc1ccccc1N1CCN(CCCNc2cc(=O)n(C)c(=O)n2C)CC1 [Urapidil hydrochloride]")
27.32
>>> observedmeasurement("O=c1c2ccccc2nc2n1CCc1c-2[nH]c2ccccc12")
29.23
>>> observedmeasurement("C1COC(NC(C2CC2)C2CC2)=N1 [Rilmenidine hemifumarate]")
24.79
>>> observedmeasurement("Cc1ccc(S(=O)(=O)/C=C/C#N)cc1")
24.61
>>> observedmeasurement("CCN(CC)CCCC(C)Nc1c2ccc(Cl)cc2nc2ccc(OC)cc12 (stereo not drawn) [Quinacrine dihydrochloride]")
39.58
>>> observedmeasurement("CN(C)CCC(c1ccccc1)c1ccccn1 (stereo not drawn) [Pheniramine maleate]")
37.25
>>> observedmeasurement("CCN[C@H]1CN(CCCOC)S(=O)(=O)c2sc(S(N)(=O)=O)cc21 [Brinzolamide]")
38.63
>>> observedmeasurement("CCCCCCCC/C=C\\CCCCCCCC(=O)NCCc1ccc(O)c(O)c1")
4.34
>>> observedmeasurement("N[C@H](CO)C(=O)O")
29.64
>>> observedmeasurement("Cc1nc(N=Nc2ccc(S(=O)(=O)O)cc2S(=O)(=O)O)c(COP(=O)(O)O)c(C=O)c1O")
7.48
>>> observedmeasurement("Cl.O=C(CCCCCN1CCN(c2ccccc2-c2ccccc2)CC1)NC1CCCc2ccccc21 (stereo not drawn) [LP 12 hydrochloride hydrate]")
51.29
>>> observedmeasurement("C=C[C@H]1C[N@@]2CC[C@H]1C[C@H]2[C@H](O)c1ccnc2ccc(OC)cc12 [Quinine sulfate]")
30.14
>>> observedmeasurement("CCOC(=O)C1=C[C@]2(CC)CCCN3CCc4c(n1c1ccccc41)[C@@H]32")
29.87
>>> observedmeasurement("Cl.NCCc1ccc(O)cc1 [4-Hydroxyphenethylamine hydrochloride]")
39.01
>>> observedmeasurement("CC1=C(CC(=O)O)c2cc(F)ccc2/C1=C\\c1ccc([S+](C)[O-])cc1 (stereo not drawn)")
35.56
>>> observedmeasurement("CN(C)c1ccccc1CN1CCCN(Cc2ccccc2N(C)C)C1c1ccncc1")
41.02
>>> observedmeasurement("NS(=O)(=O)C#Cc1ccccc1")
31.04
>>> observedmeasurement("Cc1nc2sccn2c(=O)c1CCN1CCC(=C(c2ccc(F)cc2)c2ccc(F)cc2)CC1")
37.56

---

experimentalTarget: His6-AspH315–758 (human aspartate/asparagine-β-hydroxylase, AspH) (Homo sapiens, UniProt Q12797)
Construct: N-Terminally His6-tagged human AspH315–758 (His6-AspH315–758) was produced in E. coli BL21 (DE3) cells; made in house; host or cells: E. coli BL21 (DE3), pET-28a(+) vector
Sequence (Q12797 315-758): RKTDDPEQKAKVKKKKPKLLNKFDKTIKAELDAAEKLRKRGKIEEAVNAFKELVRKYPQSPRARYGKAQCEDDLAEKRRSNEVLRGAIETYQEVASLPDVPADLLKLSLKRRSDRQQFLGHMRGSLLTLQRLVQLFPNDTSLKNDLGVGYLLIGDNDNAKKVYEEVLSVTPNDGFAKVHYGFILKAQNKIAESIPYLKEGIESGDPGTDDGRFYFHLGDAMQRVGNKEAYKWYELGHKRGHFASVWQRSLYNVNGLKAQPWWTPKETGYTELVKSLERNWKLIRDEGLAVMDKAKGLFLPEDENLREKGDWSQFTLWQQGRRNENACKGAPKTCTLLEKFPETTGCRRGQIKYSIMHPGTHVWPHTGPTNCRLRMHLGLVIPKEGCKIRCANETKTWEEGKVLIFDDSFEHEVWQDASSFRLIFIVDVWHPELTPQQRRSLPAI
methodDescription: SPE-MS AspH inhibition assay (LOPAC screen at fixed 20 μM and IC50 dose-response), hydroxylation of cyclic peptide hFX-CP101–119
Format: biochemical
statedConditions: plate 5 (Pfitzer), test compounds at fixed 20 μM; mean conversion DMSO 32.88
Each record gets a class by Plate 5 (% conversion): low interval: < 30%; middle interval: ≥ 30% and < 40%; high interval: ≥ 40%

>>> class("CCc1cncnc1N1CCN(Cc2nc3ccc(C(F)(F)F)cc3[nH]2)CC1 [PF-4708671]")
"middle interval"
>>> class("N#CC(CCCN1CCN(/N=C/c2cccnc2)CC1)(c1ccccc1)c1ccccc1 [SC-26196]")
"low interval"
>>> class("COc1cc(N)c(Cl)cc1C(=O)NC[C@@H]1CCN2CCC[C@@H]12 [SC-53116]")
"middle interval"
>>> class("CCN(CC)CCNC(=O)c1c(C)[nH]c(/C=C2\\C(=O)Nc3ccc(F)cc32)c1C [Sunitinib]")
"low interval"
>>> class("CN1CCC[C@@H]1Cc1c[nH]c2ccc(CCS(=O)(=O)c3ccccc3)cc12 [Eletriptan]")
"middle interval"
>>> class("Cn1cc(-c2[nH]c3cc(NC(=O)[C@H](N)C4CCCCC4)cc4c3c2C=NNC4=O)cn1 [PF-477736]")
"high interval"
>>> class("O=C(N[C@H]1CN2CCC1CC2)c1cc2ccoc2cn1 [PHA-543613]")
"middle interval"
>>> class("O=C(CCSCc1ccco1)NNC(=O)N1Cc2ccccc2Oc2ccc(Cl)cc21 [SC-51322]")
"middle interval"
>>> class("CC(=O)c1cccc(N[C@H]2[C@H](N)[C@@](NC(=O)N(C)C)([C@H](C)O)[C@@](C)(O)[C@@]2(O)COC(=O)c2c(C)cccc2O)c1 [Pactamycin]")
"low interval"
>>> class("N#C/C(=C\\c1cn(-c2ccccc2)c2ccccc12)C(=O)O [UK-5099]")
"low interval"
>>> class("COc1cc(Nc2c(C#N)cnc3cc(OCCCN4CCN(C)CC4)c(OC)cc23)c(Cl)cc1Cl [Bosutinib]")
"high interval"
>>> class("Cc1cc(Nc2ncc3cc(-c4c(Cl)cccc4Cl)c(=O)n(C)c3n2)ccc1F [PD-180970]")
"low interval"
>>> class("CCN(CC)CCOc1ccc(Nc2ncc3cc(-c4c(Cl)cccc4Cl)c(=O)n(C)c3n2)cc1 [PD-166285]")
"high interval"
>>> class("C[C@@H](c1ncncc1F)[C@](O)(Cn1cncn1)c1ccc(F)cc1F [Voriconazole]")
"middle interval"
>>> class("CC[C@H]1OC(=O)[C@H](C)[C@@H](O[C@H]2C[C@@](C)(OC)[C@@H](O)[C@H](C)O2)[C@H](C)[C@@H](O[C@@H]2O[C@H](C)C[C@H](N(C)C)[C@H]2O)[C@](C)(O)C[C@@H](C)CN(C)[C@H](C)[C@@H](O)[C@]1(C)O [Azithromycin]")
"middle interval"
